- TGT: UniProt P03372
- PROTOCOL_DESCRIPTION: ERE luciferase reporter gene assay in T47D-KBluc cells (target engagement)
- Type: cell-based
- Design: T47D human breast cancer cells stably transfected with estrogen responsive element/promoter/luciferase reporter gene; host or cells: T47D-KBluc cells
- MEASUREMENT_CONDITIONS: 10% FBS, 24 hours, Table 2 VHL centric PROTACs, read-out: IC50
PARAMETER_MEASURED: IC50

Solved cases below.
{"STRUCTURE_AS_SMILES": "Cc1ncsc1-c1ccc(CNC(=O)[C@@H]2C[C@@H](O)CN2C(=O)[C@@H](NC(=O)CCCC(=O)N2CCN(CCOc3ccc(Oc4c(-c5ccc(F)cc5)sc5cc(O)ccc45)cc3)[C@@H](C)C2)C(C)(C)C)cc1", "PARAMETER_MEASURED": "IC50", "READING": "2.2 nM"}
{"STRUCTURE_AS_SMILES": "COc1ccc2c(Oc3ccc(OCCN4CCN(CCOCC(=O)N[C@H](C(=O)N5C[C@H](O)C[C@H]5C(=O)N[C@@H](C)c5ccc(-c6scnc6C)cc5)C(C)(C)C)CC4)cc3)c(-c3ccc(Br)cc3)sc2c1", "PARAMETER_MEASURED": "IC50", "READING": "> 100 nM"}
{"STRUCTURE_AS_SMILES": "Cc1ncsc1-c1ccc(CNC(=O)[C@@H]2CCCN2C(=O)[C@@H](NC(=O)COCCN2CCN(CCOc3ccc(Oc4c(-c5ccc(Br)cc5)sc5cc(O)ccc45)cc3)CC2)C(C)(C)C)cc1", "PARAMETER_MEASURED": "IC50", "READING": "> 100 nM"}
{"STRUCTURE_AS_SMILES": "Cc1ncsc1-c1ccc(CNC(=O)[C@@H]2C[C@@H](O)CN2C(=O)[C@@H](NC(=O)COCCCCOc2ccc(-c3ccc(Oc4c(-c5ccc(F)cc5)sc5cc(O)ccc45)cc3)nc2)C(C)(C)C)cc1", "PARAMETER_MEASURED": "IC50", "READING": "3.7 nM"}

# context switch: different compound, same IC50
IC50 measured on `Cc1ncsc1-c1ccc(CNC(=O)[C@H]2C[C@H](O)CN2C(=O)[C@@H](NC(=O)COCCN2CCN(CCOc3ccc(Oc4c(-c5ccc(Br)cc5)sc5cc(O)ccc45)cc3)CC2)C(C)(C)C)cc1` = > 100 nM

---

- TGT: ERα (Homo sapiens, UniProt P03372)
- PROTOCOL_DESCRIPTION: ERE luciferase reporter gene assay in T47D-KBluc cells (target engagement)
- Type: cell-based
- Set-up: T47D human breast cancer cells stably transfected with estrogen responsive element/promoter/luciferase reporter gene; host or cells: T47D-KBluc cells
- MEASUREMENT_CONDITIONS: 10% FBS, 24 hours, Table 1 cereblon centric PROTACs, read-out: ER-α Luciferase IC50
Please respond with reported IC50 for every item in the list.
Answers are plain numbers, in pM.

{"COMPOUND": "O=C1CCC(N2Cc3cc(CCCOC4CCN(CCOc5ccc(Oc6c(-c7ccc(Br)cc7)sc7cc(O)ccc67)cc5)CC4)ccc3C2=O)C(=O)N1 (stereo not drawn) [Compound 73]", "IC50 [pM]": 1300}

Quick request: IC50 for each listed item, please.
1. O=C1CCC(N2Cc3c(NCCN4CCN(CCOc5ccc(Oc6c(-c7ccccc7)sc7cc(O)ccc67)cc5)CC4)cccc3C2=O)C(=O)N1 (stereo not drawn) [Compound 2]
2. O=C1CC[C@H](N2Cc3cc(OCCOC4CCN(CCOc5ccc(Oc6c(-c7ccc(Br)cc7)sc7cc(O)ccc67)cc5)CC4)ccc3C2=O)C(=O)N1 [Compound 44]

OUTPUT:
360
540

---

- TGT: ERα (Homo sapiens, UniProt P03372)
- PROTOCOL_DESCRIPTION: Estrogen receptor-alpha (ERα) degradation assay in MCF-7 cells using western blot
- Format: cell-based
- Design: assessed for their activity in degrading ERα in MCF-7 cells via western blot; endogenous in cells; host or cells: MCF7 cells
- MEASUREMENT_CONDITIONS: ER-alpha degradation, MCF7 cells, 3 days of incubation
PARAMETER_MEASURED: DC50

Solved cases below.
{"STRUCTURE_AS_SMILES": "Cc1ncsc1-c1ccc(CNC(=O)[C@@H]2C[C@@H](O)CN2C(=O)[C@@H](NC(=O)COCCN2CCN(CCOc3ccc(Oc4c(-c5ccc(F)cc5)sc5cc(O)ccc45)cc3)CC2)C(C)(C)C)cc1", "DC50": "< 1 nM"}
{"STRUCTURE_AS_SMILES": "Cc1ncsc1-c1ccc(CNC(=O)[C@@H]2C[C@@H](O)CN2C(=O)[C@@H](NC(=O)Cc2ccc(-c3ccn(CCOc4ccc(Oc5c(-c6ccc(F)cc6)sc6cc(O)ccc56)cc4)n3)cc2)C(C)(C)C)cc1", "DC50": "1 to 10 nM"}
{"STRUCTURE_AS_SMILES": "Cc1ncoc1-c1ccc([C@H](C)NC(=O)[C@@H]2C[C@@H](O)CN2C(=O)[C@@H](NC(=O)COCCOCCOCCOc2ccc(Oc3c(-c4ccccc4)sc4cc(O)ccc34)cc2)C(C)(C)C)cc1", "DC50": "< 1 nM"}
{"STRUCTURE_AS_SMILES": "Cc1ncsc1-c1ccc([C@H](C)NC(=O)[C@@H]2C[C@@H](O)CN2C(=O)[C@@H](NC(=O)COCCOCCOCCOc2ccc(Oc3c(-c4ccc(Br)cc4)sc4cc(O)ccc34)cc2)C(C)(C)C)cc1", "DC50": "< 1 nM"}

Quick request: DC50 for each listed item, please.
1. Cc1ncsc1-c1ccc([C@H](C)NC(=O)[C@@H]2C[C@@H](O)CN2C(=O)[C@@H](NC(=O)COCCN2CCN(CCOc3ccc(Oc4c(-c5ccc(Br)cc5)sc5cc(O)ccc45)cc3)CC2)C(C)(C)C)cc1
2. Cc1ncsc1-c1ccc([C@H](C)NC(=O)[C@@H]2C[C@@H](O)CN2C(=O)[C@@H](NC(=O)COCCOCCOCCOc2ccc(Oc3c(-c4ccc(F)cc4)sc4cc(O)ccc34)cc2)C(C)(C)C)cc1
3. Cc1ncsc1-c1ccc([C@H](C)NC(=O)[C@@H]2C[C@@H](O)CN2C(=O)[C@@H](NC(=O)COCCOCCN2CCC(c3ccc(Oc4c(-c5ccc(F)cc5)sc5cc(O)ccc45)cc3)CC2)C(C)(C)C)cc1

OUTPUT:
1: 1 to 10 nM; 2: < 1 nM; 3: < 1 nM

DC50 measured on `Cc1ncsc1-c1ccc(CNC(=O)[C@@H]2C[C@@H](O)CN2C(=O)[C@@H](NC(=O)COc2cccc(CCN(C)CCOc3ccc(Oc4c(-c5ccc(F)cc5)sc5cc(O)ccc45)cc3)c2)C(C)(C)C)cc1` = < 1 nM

---

- TGT: ERα (Homo sapiens)
- Sequence (P03372 1-595): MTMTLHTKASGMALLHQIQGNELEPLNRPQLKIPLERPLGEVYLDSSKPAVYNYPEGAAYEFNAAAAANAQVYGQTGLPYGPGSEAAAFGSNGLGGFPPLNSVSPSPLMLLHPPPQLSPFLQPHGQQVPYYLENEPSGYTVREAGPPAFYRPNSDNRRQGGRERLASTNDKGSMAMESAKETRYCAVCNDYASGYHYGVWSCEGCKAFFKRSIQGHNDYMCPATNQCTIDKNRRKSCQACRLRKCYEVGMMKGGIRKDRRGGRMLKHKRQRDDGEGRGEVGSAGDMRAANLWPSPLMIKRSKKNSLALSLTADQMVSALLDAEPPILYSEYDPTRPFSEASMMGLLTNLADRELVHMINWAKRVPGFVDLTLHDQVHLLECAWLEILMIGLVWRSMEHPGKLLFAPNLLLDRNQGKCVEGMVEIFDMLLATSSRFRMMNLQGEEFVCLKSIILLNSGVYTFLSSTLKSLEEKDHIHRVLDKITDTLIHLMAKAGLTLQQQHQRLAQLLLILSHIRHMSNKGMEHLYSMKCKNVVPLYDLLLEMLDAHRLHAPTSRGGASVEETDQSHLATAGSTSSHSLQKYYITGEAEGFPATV
- PROTOCOL_DESCRIPTION: ERE luciferase reporter gene assay in T47D-KBluc cells (target engagement)
- Type: cell-based
- Set-up: T47D human breast cancer cells stably transfected with estrogen responsive element/promoter/luciferase reporter gene; host or cells: T47D-KBluc cells
- MEASUREMENT_CONDITIONS: 10% FBS, 24 hours, Table 1 cereblon centric PROTACs, read-out: ER-α Luciferase IC50
PARAMETER_MEASURED: IC50 (nM)
Give bare numbers, in nM.

{"COMPOUND": "O=C(CC1CCN(CCOc2ccc(Oc3c(-c4ccc(Br)cc4)sc4cc(O)ccc34)cc2)CC1)NCc1ccc2c(c1)CN(C1CCC(=O)NC1=O)C2=O (stereo not drawn)", "IC50, nM": 0.82}

Quick request: IC50 for each listed item, please.
1. O=C1CCC(N2Cc3cc(OCCCOCCCOc4ccc(Oc5c(-c6ccc(Br)cc6)sc6cc(O)ccc56)cc4)ccc3C2=O)C(=O)N1 (stereo not drawn)
2. O=C1CCC(N2Cc3c(NCCOCCOCCOCCOCCOc4ccc(Oc5c(-c6ccc(Br)cc6)sc6cc(O)ccc56)cc4)cccc3C2=O)C(=O)N1 (stereo not drawn)

OUTPUT:
[9.9, 81.4]
